From: the supplement of paper PMC10266784

Let's look at some variants and their measured SGCB cell-surface expression functional score (log10).
B1: library; numbered along this chain (parent)
chain: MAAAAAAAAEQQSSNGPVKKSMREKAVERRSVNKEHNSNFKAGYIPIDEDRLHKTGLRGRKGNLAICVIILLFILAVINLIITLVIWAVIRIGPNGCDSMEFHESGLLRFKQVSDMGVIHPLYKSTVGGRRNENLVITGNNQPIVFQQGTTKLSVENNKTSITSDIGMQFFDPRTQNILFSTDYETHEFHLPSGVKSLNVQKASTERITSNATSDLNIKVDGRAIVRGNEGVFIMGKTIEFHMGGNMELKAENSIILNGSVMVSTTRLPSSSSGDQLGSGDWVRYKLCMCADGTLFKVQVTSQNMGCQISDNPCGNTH

- Variants of: B1
- ASSAY_PROTOCOL: SGCB cell-surface expression functional score (HA stain, bin4 vs bin1, normalised to synonymous) (log10 ratio); higher = more cell-surface SGCB (functional)
READOUT: SGCB cell-surface expression functional score (log10)

[
  {
    "RESIDUE_CHANGE": "C314P",
    "OBSERVED_MEASUREMENT": -0.09
  },
  {
    "RESIDUE_CHANGE": "T175F",
    "OBSERVED_MEASUREMENT": 0.17
  },
  {
    "RESIDUE_CHANGE": "E35W",
    "OBSERVED_MEASUREMENT": 0.28
  },
  {
    "RESIDUE_CHANGE": "Y285F",
    "OBSERVED_MEASUREMENT": -0.2
  },
  {
    "RESIDUE_CHANGE": "T83H",
    "OBSERVED_MEASUREMENT": -0.43
  },
  {
    "RESIDUE_CHANGE": "R58I",
    "OBSERVED_MEASUREMENT": 0.13
  },
  {
    "RESIDUE_CHANGE": "V68T",
    "OBSERVED_MEASUREMENT": 0.29
  },
  {
    "RESIDUE_CHANGE": "D98C",
    "OBSERVED_MEASUREMENT": -0.07
  },
  {
    "RESIDUE_CHANGE": "A8R",
    "OBSERVED_MEASUREMENT": 0.09
  },
  {
    "RESIDUE_CHANGE": "Q12R",
    "OBSERVED_MEASUREMENT": 0.29
  },
  {
    "RESIDUE_CHANGE": "A65C",
    "OBSERVED_MEASUREMENT": 0.32
  },
  {
    "RESIDUE_CHANGE": "R207S",
    "OBSERVED_MEASUREMENT": -1.22
  },
  {
    "RESIDUE_CHANGE": "F233I",
    "OBSERVED_MEASUREMENT": 0.99
  },
  {
    "RESIDUE_CHANGE": "K196Y",
    "OBSERVED_MEASUREMENT": -1.19
  },
  {
    "RESIDUE_CHANGE": "P192C",
    "OBSERVED_MEASUREMENT": -0.78
  },
  {
    "RESIDUE_CHANGE": "V263A",
    "OBSERVED_MEASUREMENT": -0.4
  },
  {
    "RESIDUE_CHANGE": "K19C",
    "OBSERVED_MEASUREMENT": -0.11
  },
  {
    "RESIDUE_CHANGE": "G59F",
    "OBSERVED_MEASUREMENT": 0.13
  },
  {
    "RESIDUE_CHANGE": "K34G",
    "OBSERVED_MEASUREMENT": 0.01
  },
  {
    "RESIDUE_CHANGE": "R109F",
    "OBSERVED_MEASUREMENT": -0.2
  },
  {
    "RESIDUE_CHANGE": "S193R",
    "OBSERVED_MEASUREMENT": 0.17
  },
  {
    "RESIDUE_CHANGE": "G315P",
    "OBSERVED_MEASUREMENT": -0.04
  }
]
